FYI, the data here is from patent US9920022B2.

Experimental System: Thyroid Receptor TRβ (Homo sapiens, UniProt P10828)
Construct: expressed in transfected cells; host or cells: HEK-293
Sequence (P10828 whole entry): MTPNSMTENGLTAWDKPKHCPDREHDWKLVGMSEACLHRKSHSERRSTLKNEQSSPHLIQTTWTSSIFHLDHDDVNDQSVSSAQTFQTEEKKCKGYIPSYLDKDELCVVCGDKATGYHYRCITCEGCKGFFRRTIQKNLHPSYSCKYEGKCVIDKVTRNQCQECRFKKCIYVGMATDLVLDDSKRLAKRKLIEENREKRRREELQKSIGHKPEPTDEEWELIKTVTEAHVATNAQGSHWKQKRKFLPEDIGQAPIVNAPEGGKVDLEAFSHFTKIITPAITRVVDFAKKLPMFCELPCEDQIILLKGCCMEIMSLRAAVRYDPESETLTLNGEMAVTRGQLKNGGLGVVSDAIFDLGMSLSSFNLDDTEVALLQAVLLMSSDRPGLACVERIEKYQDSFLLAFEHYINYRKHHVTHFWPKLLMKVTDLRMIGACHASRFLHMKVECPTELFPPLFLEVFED
Measurement Description: Thyroid Receptor TRβ Agonist Assay (luciferase reporter gene, co-transfected HEK-293 cells)
Type: cell-based
Cond: TRβ plasmid + thyroid hormone response element luciferase reporter in HEK-293 cells; 24 hours; maximum concentration 10 μM
pEC50: −log10 of the molar value.
Observation Type: pEC50

Take a look at these entries with their results.
Task item: Bench note: what pEC50 did `O=C(NO)C(=O)Nc1cc(Cl)c(Oc2ccc(O)c(CN3Cc4ccccc4C3)c2)c(Cl)c1` show?
Reply: 5.03

Task item: Bench note: what pEC50 did `O=C(NO)C(=O)Nc1cc(Cl)c(Oc2ccc(O)c(Cc3ccc(F)cc3)c2)c(Cl)c1` show?
Reply: 6.75

I. Cc1ccc(Cc2cc(Oc3c(Cl)cc(NC(=O)C(=O)NO)cc3Cl)ccc2O)cc1
II. O=C(NO)C(=O)Nc1cc(Cl)c(Oc2ccc(O)c(Cc3ccc(Cl)c(Cl)c3)c2)c(Cl)c1
III. O=C(NO)C(=O)Nc1cc(Cl)c(Oc2ccc(O)c(CN3CCCC3)c2)c(Cl)c1
IV. O=C(NO)C(=O)Nc1cc(Cl)c(Oc2ccc(O)c(CN3CCc4ccccc4C3)c2)c(Cl)c1
Task item: Form: Sort by [pEC50] Order [ ascending ] Rank the items, then write their labels in that order.
Reply: III, IV, II, I
(III: 5.01, IV: 5.43, II: 6.40, I: 6.87)
